Tested on: K562
RUN_DESCRIPTION: Cytotoxicity to reduce chronic myeloid leukemia K 562 cells
Assay type: functional
MEASUREMENT_CONTEXT: Homo sapiens
PARAMETER: CC50 (µM)
Quick reminder: number only, in µM, skip the unit.

Examples from the recorded data:
COMPOUND | UNIT_TEXT | TEST_VALUE
Clc1ccc(COC(Cn2ccnc2)c2ccc(Cl)cc2Cl)c(Cl)c1 (stereo not drawn) | µM | 39.3
CC(=O)N1CCN(c2ccc(OC[C@H]3CO[C@](Cn4ccnc4)(c4ccc(Cl)cc4Cl)O3)cc2)CC1 | µM | 61.7
Clc1ccc(OC(CCn2ccnc2)c2ccccc2)c(Cl)c1 (stereo not drawn) | µM | 96.7
Fc1ccc(OC(CCn2ccnc2)c2ccccc2)c(F)c1 (stereo not drawn) | µM | 298
Clc1ccc(COC(Cn2ccnc2)c2ccc(Cl)cc2Cl)cc1 (stereo not drawn) | µM | 54.7

The compound Fc1ccc(C(CCn2ccnc2)Oc2ccc(Cl)cc2Cl)cc1 (stereo not drawn) on K562: CC50 was 33.5

Response field CC50 (K562) for item O=[N+]([O-])c1ccc(OC(CCn2ccnc2)c2ccccc2)cc1 (stereo not drawn) : 102

Let me check: `OC(Cn1cncn1)(Cn1cncn1)c1ccc(F)cc1F` , system K562, measured CC50 is 385

----------
Test system: Candida albicans
RUN_DESCRIPTION: Minimum inhibitory concentration to inhibit 50% of the isolates
Assay type: functional, Fungi
# MIC50 listing for each entry below
Provide only the numeric value, understood in µg/mL.

COMPOUND | TARGET_OR_SYSTEM | MIC50 / µg/mL
CNCCC(Oc1ccc(C(F)(F)F)cc1)c1ccccc1 (stereo not drawn) | Candida albicans | 64

The compound Cc1ccc(OC(CCn2ccnc2)c2ccccc2)cc1 (stereo not drawn) showed MIC50 equal to 8

According to the records, this compound Fc1ccc(C(CCn2ccnc2)Oc2ccc(Cl)cc2Cl)cc1 (stereo not drawn) displays MIC50 of 2

For record Clc1ccc(COC(Cn2ccnc2)c2ccc(Cl)cc2Cl)c(Cl)c1 (stereo not drawn) the listed MIC50 is 4

MIC50 reading for Clc1ccc(OC(CCn2ccnc2)c2ccccc2)c(Cl)c1 (stereo not drawn) : 4

Note to self: MIC50 recorded for Clc1ccc(C(CCn2ccnc2)Oc2ccc(Cl)cc2Cl)cc1 (stereo not drawn) was 2

// MIC50 value for Cc1ccc(C(CCn2ccnc2)Oc2ccc(Cl)cc2Cl)cc1 (stereo not drawn) : 2

response.value for Clc1ccc(OC(CCn2ccnc2)c2ccccc2)cc1 (stereo not drawn) (field: MIC50) = 2

What the record says about O=[N+]([O-])c1ccc(OC(CCn2ccnc2)c2ccccc2)cc1 (stereo not drawn) : MIC50 is 32

The compound `OC(Cn1cncn1)(Cn1cncn1)c1ccc(F)cc1F` showed MIC50 equal to 2

Entry `CC(=O)N1CCN(c2ccc(OC[C@H]3CO[C@](Cn4ccnc4)(c4ccc(Cl)cc4Cl)O3)cc2)CC1` — recorded MIC50 = 4

Looking up FC(F)(F)c1ccc(OC(CCn2ccnc2)c2ccccc2)cc1 (stereo not drawn) , I see its MIC50 listed as 64

The compound identified as Clc1ccc(COC(Cn2ccnc2)c2ccc(Cl)cc2Cl)cc1 (stereo not drawn) registered its MIC50 at 4

----------
Tested on: K562
RUN_DESCRIPTION: Cytotoxicity to reduce chronic myeloid leukemia K 562 cells
Assay type: functional
MEASUREMENT_CONTEXT: Homo sapiens
# MET = CC50 below 50 µM (exclusive); NOT MET = CC50 at/above 50 µM

MOLECULE | CAT
FC(F)(F)c1ccc(OC(CCn2ccnc2)c2ccccc2)cc1 (stereo unspecified) | NOT MET
Cc1ccc(C(CCn2ccnc2)Oc2ccc(Cl)cc2Cl)cc1 (stereo unspecified) | MET
CNCCC(Oc1ccc(C(F)(F)F)cc1)c1ccccc1 (stereo unspecified) [FLUOXETINE] | MET
Cc1ccc(OC(CCn2ccnc2)c2ccccc2)cc1 (stereo unspecified) | NOT MET
Clc1ccc(C(CCn2ccnc2)Oc2ccc(Cl)cc2Cl)cc1 (stereo unspecified) | NOT MET

Ask: Below 50 µM on CC50? Entry Clc1ccc(OC(CCn2ccnc2)c2ccccc2)cc1 (stereo unspecified)
Reply: NOT MET

FYI, the data here is from ChEMBL document CHEMBL1138657.
